test system: Shigella flexneri; experiment: growth AUC normalised to DMSO control (fraction of control); higher = less growth inhibition, active = hit call of the paper; settings: 20 µM
Where a name gives a salt, the structure may show the parent alone.
Catalogue of molecules with associated growth AUC normalised to DMSO control
Reply briefly: the number, and no unit.

These solved cases illustrate the format of a correct answer.
>>> assayvalue("CN(CCCCCCCCCCN(C)C(=O)Oc1cccc([N+](C)(C)C)c1)C(=O)Oc1cccc([N+](C)(C)C)c1 [Demecarium bromide]")
1
>>> assayvalue("Nc1nc(=O)n([C@@H]2CS[C@H](CO)O2)cc1F [(-) Emtricitabine]")
0.961

State measured growth AUC normalised to DMSO control of the molecule NS(=O)(=O)c1cc2c(cc1C(F)(F)F)NCNS2(=O)=O [Hydroflumethiazide] with Shigella flexneri.
1.01

State measured growth AUC normalised to DMSO control of the molecule CC(=O)NS(=O)(=O)c1ccc(N)cc1 [Sulfacetamide sodic hydrate] with Shigella flexneri.
1.01

State measured growth AUC normalised to DMSO control of the molecule CCOC(=O)C1=C[C@]2(CC)CCCN3CCc4c(n1c1ccccc41)[C@@H]32 [Vinpocetine] with Shigella flexneri.
1.03

State measured growth AUC normalised to DMSO control of the molecule CCC(C)n1ncn(-c2ccc(N3CCN(c4ccc(OCC5COC(Cn6cncn6)(c6ccc(Cl)cc6Cl)O5)cc4)CC3)cc2)c1=O (stereo not drawn) [Itraconazole] with Shigella flexneri.
1.03

State measured growth AUC normalised to DMSO control of the molecule C1CCC(C(CC2CCCCN2)C2CCCCC2)CC1 (stereo not drawn) [Perhexiline maleate] with Shigella flexneri.
0.977

State measured growth AUC normalised to DMSO control of the molecule CCCc1nn(C)c2c(=O)[nH]c(-c3cc(S(=O)(=O)N4CCN(C)CC4)ccc3OCC)nc12 [Sildenafil] with Shigella flexneri.
1.07

---

Catalogue of molecules with associated growth AUC normalised to DMSO control
tested on: Salmonella enterica typhimurium; test: growth AUC normalised to DMSO control (fraction of control); higher = less growth inhibition, active = hit call of the paper; conditions: 20 µM
Structures can show the parent of a compound that is named as a salt.
Reply briefly: the number, and no unit.

>>> assayvalue("O=C(Nc1ccccc1)OCC(CN1CCCCC1)OC(=O)Nc1ccccc1 (stereo unspecified) [Diperodon hydrochloride]")
1.01
>>> assayvalue("Cc1c(N(C)C)c(=O)n(-c2ccccc2)n1C")
1.01
>>> assayvalue("OCc1cc(C(O)CNCCCCCCOCCCCc2ccccc2)ccc1O (stereo unspecified)")
0.997
>>> assayvalue("CN(CCCCCCCCCCN(C)C(=O)Oc1cccc([N+](C)(C)C)c1)C(=O)Oc1cccc([N+](C)(C)C)c1 [Demecarium bromide]")
0.99
>>> assayvalue("CNc1ncnc2c1ncn2[C@@H]1O[C@H](CO)[C@@H](O)[C@H]1O")
0.972
>>> assayvalue("CC(=O)[C@@]1(O)CC[C@H]2[C@@H]3C[C@H](C)C4=CC(=O)C=C[C@]4(C)[C@@]3(F)[C@@H](O)C[C@@]21C")
1.01

Please report growth AUC normalised to DMSO control for the following molecule: O=C1NCC2(CCN(CCc3ccccc3)CC2)O1 [Fenspiride hydrochloride]
0.967

Please report growth AUC normalised to DMSO control for the following molecule: CCOC(=O)OC(C)OC(=O)[C@@H]1N2C(=O)[C@@H](NC(=O)[C@H](N)c3ccccc3)[C@H]2SC1(C)C (stereo partly specified) [Bacampicillin hydrochloride]
0.00881

Please report growth AUC normalised to DMSO control for the following molecule: CC(=O)OCC(=O)[C@@]12OC3(CCCC3)O[C@@H]1C[C@H]1[C@@H]3CCC4=CC(=O)C=C[C@]4(C)[C@@]3(F)[C@@H](O)C[C@@]12C [Amcinonide]
1.01

Please report growth AUC normalised to DMSO control for the following molecule: COc1ccccc1OCC(O)COC(N)=O (stereo unspecified)
0.986

---

test system: P. vulgatus RND KO; assay: growth AUC normalised to DMSO control (median) (fraction of control); higher = less growth inhibition, active = hit call of the paper; conditions: 20 µM
Where a name gives a salt, the structure may show the parent alone.
outcomeMeasure: growth AUC normalised to DMSO control
Reply briefly: the number, and no unit.

These solved cases illustrate the format of a correct answer.
>>> assayvalue("CN1CCN(C(c2ccccc2)c2ccc(Cl)cc2)CC1 (centres undefined) [Chlorcyclizine hydrochloride]")
0.987
>>> assayvalue("CCCCCCCCCCCCCCCC[N+](C)(C)CCN(Cc1ccc(OC)cc1)c1ncccn1 [Thonzonium bromide]")
0.878
>>> assayvalue("CC(=O)N(CC(C)C(=O)O)c1c(I)cc(I)c(N)c1I (centres undefined)")
0.984
>>> assayvalue("Fc1ccc([C@@H]2CCNC[C@H]2COc2ccc3c(c2)OCO3)cc1 [Paroxetine hydrochloride]")
0.997
>>> assayvalue("Nc1nc(=O)c2nc(CNc3ccc(C(=O)N[C@@H](CCC(=O)O)C(=O)O)cc3)cnc2[nH]1")
0.997
>>> assayvalue("Nc1c2c(nc3ccccc13)CCCC2 [Tacrine hydrochloride]")
0.999

Please report growth AUC normalised to DMSO control for the following compound: CC(COc1ccccc1)NN (centres undefined) [Phenoxypropazine dihydrochloride]
1.07

Please report growth AUC normalised to DMSO control for the following compound: Nc1ccccc1S(N)(=O)=O [o-Sulfanilamide]
1.01

Please report growth AUC normalised to DMSO control for the following compound: CC1Cc2ccccc2N1NC(=O)c1ccc(Cl)c(S(N)(=O)=O)c1 (centres undefined) [Indapamide]
0.999

---

system: Shigella flexneri; test: growth AUC normalised to DMSO control (fraction of control); higher = less growth inhibition, active = hit call of the paper; details: 20 µM
Structures can show the parent of a compound that is named as a salt.
outcomeMeasure: growth AUC normalised to DMSO control
Reply briefly: the number, and no unit.

These solved cases illustrate the format of a correct answer.
>>> assayvalue("COc1cc(NS(=O)(=O)c2ccc(N)cc2)nc(OC)n1")
1.01
>>> assayvalue("Cc1noc(NS(=O)(=O)c2ccc(N)cc2)c1C")
1
>>> assayvalue("c1ccc(CC2=NCCN2)cc1 [Tolazoline hydrochloride]")
1.02
>>> assayvalue("CCn1cc(C(=O)O)c(=O)c2cc(F)c(N3CCNC(C)C3)c(F)c21 (stereo unspecified) [Lomefloxacin hydrochloride]")
0.0101
>>> assayvalue("CC[C@H]1OC(=O)[C@H](C)[C@@H](O[C@H]2C[C@@](C)(OC)[C@@H](O)[C@H](C)O2)[C@H](C)[C@@H](O[C@@H]2O[C@H](C)C[C@H](N(C)C)[C@H]2O)[C@](C)(OC)C[C@@H](C)C(=O)[C@H](C)[C@@H](O)[C@]1(C)O")
0.508

Read the next record carefully.
State measured growth AUC normalised to DMSO control of the compound CC(C)CC(=O)N[C@H](C(=O)N[C@H](C(=O)N[C@@H](CC(C)C)[C@@H](O)CC(=O)N[C@@H](C)C(=O)N[C@@H](CC(C)C)[C@@H](O)CC(=O)O)C(C)C)C(C)C with Shigella flexneri.
1.03

---

Catalogue of molecules with associated growth AUC normalised to DMSO control
system: Vibrio cholerae; assay: growth AUC normalised to DMSO control (fraction of control); higher = less growth inhibition, active = hit call of the paper; details: 20 µM
Structures can show the parent of a compound that is named as a salt.

These solved cases illustrate the format of a correct answer.
>>> assayvalue("CCN(CCO)CCCC(C)Nc1ccnc2cc(Cl)ccc12 (stereo not drawn) [Hydroxychloroquine sulfate]")
"1.01 (inactive)"
>>> assayvalue("CC(=O)OCC(=O)[C@@]1(O)CC[C@H]2[C@@H]3CCC4=CC(=O)CC[C@]4(C)[C@H]3[C@@H](O)C[C@@]21C [Cortisol acetate]")
"1 (inactive)"
>>> assayvalue("Nc1ccn([C@@H]2CS[C@H](CO)O2)c(=O)n1")
"0.995 (inactive)"
>>> assayvalue("CCOc1ccccc1OC(c1ccccc1)C1CNCCO1 (stereo not drawn) [Reboxetine mesylate]")
"1.01 (inactive)"
>>> assayvalue("CCOc1ccc(Cc2nccc3cc(OCC)c(OCC)cc23)cc1OCC [Ethaverine hydrochloride]")
"1 (inactive)"
>>> assayvalue("CC(N)CCCC(C)(C)O (stereo not drawn) [Heptaminol hydrochloride]")
"0.986 (inactive)"

State measured growth AUC normalised to DMSO control of the molecule C#C[C@]1(O)CC[C@H]2[C@@H]3CCC4=C(CCC(=O)C4)[C@H]3CC[C@@]21C with Vibrio cholerae.
0.994 (inactive)

State measured growth AUC normalised to DMSO control of the molecule CN(C(=O)C(Cl)Cl)c1ccc(OC(=O)c2ccco2)cc1 [Diloxanide furoate] with Vibrio cholerae.
0.97 (inactive)

---

system: S. enterica typhimurium WT; experiment: growth AUC normalised to DMSO control (median) (fraction of control); higher = less growth inhibition, active = hit call of the paper; conditions: 20 µM
Structures can show the parent of a compound that is named as a salt.
Select the correct class. Options are active, inactive and nothing else.

>>> assignedclass("C=C[C@H]1CN2CC[C@H]1C[C@@H]2[C@@H](O)c1ccnc2ccc(OC)cc12 [Quinidine hydrochloride monohydrate]")
"inactive"

Hello, I am checking results. What call was entered for Cc1noc(NS(=O)(=O)c2ccc(N)cc2)c1C ?
inactive

Hello, I am checking results. What call was entered for CO/N=C1\CN(c2nc3c(cc2F)c(=O)c(C(=O)O)cn3C2CC2)CC1CN (stereo not given) [Gemifloxacin mesylate] ?
active
